- TARGET_SYSTEM: T1, PSA 146-154 peptide/HLA-A*02:01 complex on the cell surface (human)
- T1 construct: also called PSA146/HLA-A*02:01; PSA146-loaded T2 cells
- PROTOCOL_NOTES: flow cytometry, phage on T2 cells, anti-M13 + R-PE anti-mouse IgG
METRIC: binding result

| BINDER | RESULT |
| --- | --- |
| PSA146/HLA-A*02:01-specific scFv phage clone #17 (scFv, V domains shown) VH: QMQLVQSGAEVKKPGESLKISCKGSGYSFTSYWIGWVRQMPGKGLEWMGIIYPGDSDTRYSPSFQGQVTISADKSISTAYLQWSSLKASDTAMYYCARLVVPDAFDIWGQGTMVTVSS VL: QSVVTQPPSVSAAPGQKVTISCSGSSSNIGNNYVSWYQQLPGTAPKLLIYDNYKRPSGIPDRFSGSKSGTSATLGITGLQTGDEADYYCGTWDSSLSAGVFGGGTKLTVLG | binds |
| PSA146/HLA-A*02:01-specific scFv phage clone #15 (scFv, V domains shown) VH: QVQLVQSGAEVKKPGSSVKVSCKASGGTFSSYAISWVRQAPGQGLEWMGRIIPILGIANYAQKFQGRVTITADKSTSTAYMELSSLRSEDTAVYYCARVSQPVYGSSTYDIWGQGTLVTVSS VL: QAVLTQPPSASGTPGQRVTISCSGRSSNLGSNSVNWYQQVPGTAPKLLIFDNHQRPSGVPDRFSGSKSGTSASLAISGLRSEDETDYYCAAWDDSLNSVVFGGGTKLTVLG | binds |
| PSA146/HLA-A*02:01-specific scFv phage clone #9 (scFv, V domains shown) VH: QVQLVQSGAEVKKPGASVKVSCKASGYTFTSYGISWVRQAPGQGLEWMGWISAYNGNTNYAQKLQGRVTMTTDTSTSTAYMELRSLRSDDTAVYYCARSSQYYVWDSWGQGTLVTVSS VL: QSVVTQPPSVSGAPGQRVTISCTGSSSNFGAGYDVHWYQQLPGTAPKLLIYGNSNRPSGVPDRFSGSKSGTSASLAITGLQAEDEADYYCQSYDSSLSGWVFGGGTKLTVLG | binds |

Source listed as patent US20200087400A1.
